Task for the reader: assign each of the following compounds its reported pIC50.
# system name: BRD4 (Homo sapiens, UniProt O60885)
# test name: Time Resolved Fluorescence Resonance Energy Transfer (TR-FRET) binding assay, FRET BRD4
# condition description: one of the FRET assays described (BRD4 bromodomain construct not specified); read-out: FRET BRD4 IC50
pIC50: −log10 of the molar value.

Suppose we examine the compound `[2H]C([2H])([2H])c1nnn(C)c1-c1cnc2c3ccc(N4CCS(=O)(=O)CC4)cc3n([C@H](c3ccccc3)C3CCOCC3)c2c1` ; what pIC50 value has been reported? > 8.30

Name the recorded pIC50 for `[2H]C([2H])([2H])c1nnn(C)c1-c1cnc2c3ccc(N4CCCS4(=O)=O)c(F)c3n([C@H](c3ccccc3)C3CCOCC3)c2c1` . > 9.00

Sample [2H]C([2H])([2H])c1nnn(C)c1-c1cnc2c3c(N4CCCS4(=O)=O)ccc(S(C)(=O)=O)c3n(C(c3ncccc3F)C3CCOCC3)c2c1 (stereo not drawn) [Example 35] — what was its pIC50? > 9.00

Look up pIC50 for this compound: [2H]C([2H])([2H])c1nnn(C)c1-c1ccc2c3ncc(-c4c(C([2H])([2H])[2H])nnn4C)cc3n(C(c3ncccc3F)C3CCOCC3)c2c1 (stereo not drawn) [Example 27] > 8.30

Quick check: pIC50 of `CC(=O)OCC(=O)N1CCC(c2ccc3c(c2)c2ncc(-c4c(C)nnn4C)cc2n3[C@H](c2ccccc2)C2CCOCC2)CC1` ? > 8.30

Given `Cc1nnn(C)c1-c1cnc2c3ccc(N4CCN(S(=O)(=O)N(C)C)CC4)cc3n([C@H](c3ccccc3)C3CCOCC3)c2c1` , state its recorded pIC50. > 8.30

Name the recorded pIC50 for `[2H]C([2H])([2H])c1nnn(C)c1-c1cnc2c3ccc(N4CCNC4=O)c(F)c3n([C@H](c3ccccc3)C3CCOCC3)c2c1` . > 8.30

# pIC50 lookup, item `[2H]C([2H])([2H])c1nnn(C)c1-c1cnc2c3ccc(N4CCCS4(=O)=O)c(F)c3n([C@H](c3ncccc3F)C3CCOCC3)c2c1` > 8.30

Fill blank: measured pIC50 of the compound `[2H]C([2H])([2H])c1nnn(C)c1-c1cnc2c3ccc(N4CCOC4=O)c(F)c3n([C@H](c3ccccc3)C3CCOCC3)c2c1` is ____. > 9.00
